# tested_target: Sodium- and chloride-dependent GABA transporter 3 (Mus musculus)
# Sequence (P31650 whole entry): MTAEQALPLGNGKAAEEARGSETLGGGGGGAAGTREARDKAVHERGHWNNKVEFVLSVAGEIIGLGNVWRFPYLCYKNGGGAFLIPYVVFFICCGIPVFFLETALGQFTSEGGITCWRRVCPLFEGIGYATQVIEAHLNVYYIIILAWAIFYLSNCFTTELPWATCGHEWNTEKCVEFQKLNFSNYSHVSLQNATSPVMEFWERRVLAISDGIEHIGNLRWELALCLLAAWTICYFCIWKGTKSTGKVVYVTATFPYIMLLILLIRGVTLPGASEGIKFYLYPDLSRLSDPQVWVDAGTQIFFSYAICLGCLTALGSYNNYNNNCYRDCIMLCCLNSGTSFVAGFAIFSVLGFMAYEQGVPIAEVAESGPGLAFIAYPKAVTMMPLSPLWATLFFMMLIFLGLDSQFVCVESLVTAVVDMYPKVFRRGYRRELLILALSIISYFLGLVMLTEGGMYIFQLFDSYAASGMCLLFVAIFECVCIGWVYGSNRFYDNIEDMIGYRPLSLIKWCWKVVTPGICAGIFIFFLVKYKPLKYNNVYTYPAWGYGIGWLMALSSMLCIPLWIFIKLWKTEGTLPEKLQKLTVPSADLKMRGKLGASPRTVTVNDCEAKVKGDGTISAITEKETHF
# protocol_summary: Inhibition of mouse GAT3-mediated [3H]GABA uptake expressed in human HEK cells assessed as specific binding remaining at 1 mM
quantity_name: pIC50
By convention, pIC50 is the negative base-10 log of a molar concentration.

Qu. Quick one: pIC50 for O=C(O)CCCCCCn1ccnc1 ?
Ans. 3.11
